# maps each entry to its pIC50
Target: full-length beta-Catenin (Uniprot ID P35222) (Homo sapiens)
Construct: 10 nM full-length beta-Catenin (Uniprot ID P35222)
Sequence (P35222 whole entry): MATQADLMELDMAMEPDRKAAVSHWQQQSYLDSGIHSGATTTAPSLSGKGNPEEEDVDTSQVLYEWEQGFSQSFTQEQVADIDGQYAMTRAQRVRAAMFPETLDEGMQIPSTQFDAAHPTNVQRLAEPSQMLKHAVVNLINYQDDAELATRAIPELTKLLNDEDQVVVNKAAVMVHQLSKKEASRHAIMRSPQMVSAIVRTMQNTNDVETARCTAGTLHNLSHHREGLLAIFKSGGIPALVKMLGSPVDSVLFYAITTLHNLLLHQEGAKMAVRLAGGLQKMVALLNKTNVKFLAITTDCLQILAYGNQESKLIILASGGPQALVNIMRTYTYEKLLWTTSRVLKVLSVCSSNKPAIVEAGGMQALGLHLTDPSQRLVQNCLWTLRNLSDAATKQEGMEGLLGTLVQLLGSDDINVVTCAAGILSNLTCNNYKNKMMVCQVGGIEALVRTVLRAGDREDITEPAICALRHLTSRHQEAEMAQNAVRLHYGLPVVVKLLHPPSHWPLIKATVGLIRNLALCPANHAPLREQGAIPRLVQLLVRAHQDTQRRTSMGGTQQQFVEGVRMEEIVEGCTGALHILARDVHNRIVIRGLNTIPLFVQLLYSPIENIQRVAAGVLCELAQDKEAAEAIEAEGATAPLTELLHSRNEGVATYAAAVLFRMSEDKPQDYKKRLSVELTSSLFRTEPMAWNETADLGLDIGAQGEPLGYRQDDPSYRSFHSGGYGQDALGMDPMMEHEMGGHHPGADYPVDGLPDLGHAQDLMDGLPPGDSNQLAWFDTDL
Test: Fluorescence polarization IC50 (beta-catenin / 5FAM-TCF4 10-53 competition)
Type: binding
Conditions: fluorescence polarization; read-out: beta-Catenin FP IC50
pIC50: −log10 of the molar value.
PARAMETER_MEASURED: pIC50

MOLECULE	READOUT_VALUE
CC(=O)N1CCC[C@]12CC=CCCCC1(CCCC=CCCCOC(=O)N3CC[C@@](C(=O)N[C@@H](Cc4ccsc4)C(=O)N[C@@H](Cc4csc5ccccc45)C(=O)N[C@@H](Cc4ccccc4)C(N)=O)(C3)NC(=O)[C@H](CC(C)C)NC(=O)[C@H](Cc3ccccc3)NC(=O)[C@H](C)NC(=O)[C@H](CCCCN)NC(=O)[C@H](Cc3cccc(C(=O)O)c3)NC(=O)[C@H](CC(=O)O)NC1=O)NC(=O)[C@H](CC(C)(C)C)NC(=O)[C@H](CC(=O)O)NC2=O (some centres unmarked)	7.42
CC[C@H](C)[C@@H]1NC(=O)[C@H](CC(=O)O)NC(=O)[C@]2(CC=CCCCC3(CCCC=CCCCCCC[C@@](C)(C(=O)N[C@@H](Cc4ccccc4)C(=O)N[C@@H](Cc4csc5ccccc45)C(N)=O)NC(=O)[C@H](CC(N)=O)NC(=O)[C@H](Cc4ccccc4)NC(=O)[C@H](C)NC(=O)[C@H](C)NC(=O)[C@H](CCC(=O)O)NC(=O)[C@H](CC(=O)O)NC3=O)NC1=O)CCCN2C(C)=O (some centres unmarked) [I-714]	6.88

* * *

Target: full-length beta-Catenin (Uniprot ID P35222) (Homo sapiens)
Construct: 10 nM full-length beta-Catenin (Uniprot ID P35222)
Experiment: Fluorescence polarization IC50 (beta-catenin / 5FAM-TCF4 10-53 competition)
Assay type: binding
Conditions: fluorescence polarization; read-out: beta-Catenin FP IC50
pIC50: −log10 of the molar value.
PARAMETER_MEASURED: pIC50

COMPOUND	PARAMETER_MEASURED	READOUT_VALUE
CC(=O)N1CCC[C@]12CC=CCCCC1(CCCC=CCCCOC(=O)N3CC[C@@](C(=O)N[C@@H](Cc4ccsc4)C(=O)N[C@@H](Cc4csc5ccccc45)C(=O)N[C@@H](CC(C)C)C(N)=O)(C3)NC(=O)[C@H](CC(C)C)NC(=O)[C@H](Cc3ccccc3)NC(=O)[C@H](C)NC(=O)[C@H](C)NC(=O)[C@H](CN(CC(=O)O)CC(F)(F)F)NC(=O)[C@H](CC(=O)O)NC1=O)NC(=O)[C@H](CC(C)(C)C)NC(=O)[C@H](CC(=O)O)NC2=O (some centres unmarked) [I-1747]	pIC50	6.73
CC(=O)N1CCC[C@]12CCCCCCC1(CCCCCCCCOC(=O)N3CC[C@@](C(=O)N[C@@H](Cc4ccccc4Cl)C(=O)N[C@@H](Cc4csc5ccccc45)C(=O)N[C@@H](CCO)C(N)=O)(C3)NC(=O)[C@H](CCO)NC(=O)[C@H](Cc3ccccc3)NC(=O)[C@H](C)NC(=O)[C@H](C)NC(=O)[C@H](CN(CC(=O)O)CC(F)(F)F)NC(=O)[C@H](CC(=O)O)NC1=O)NC(=O)[C@H](CC(C)(C)C)NC(=O)[C@H](CC(=O)O)NC2=O (some centres unmarked)	pIC50	6.27

* * *

Experiment: Solubility in PBS
Format: physicochemical

MOLECULE	Solubility [µM]
C[C@@H]1NC(=O)[C@H](C)NC(=O)[C@H](CC(=O)O)NC(=O)[C@H](CC(=O)O)NC(=O)C2(CCCC=CCCCCCC[C@@](C)(C(=O)N[C@@H](Cc3ccccc3Cl)C(=O)N[C@@H](Cc3csc4ccccc34)C(=O)N[C@@H](CCC(N)=O)C(N)=O)NC(=O)[C@H]([C@@H](C)O)NC(=O)[C@H](Cc3ccccc3)NC1=O)CCCC=CC[C@]1(CCCN1S(C)(=O)=O)C(=O)N[C@@H](CC(=O)O)C(=O)N[C@@H](CC(C)(C)C)C(=O)N2 (stereo partly shown)	50
CC(=O)N1CCC[C@]12CC=CCCCC1(CCCC=CCCCCCC[C@@](C)(C(=O)N[C@@H](Cc3ccccc3)C(=O)N[C@@H](Cc3csc4ccccc34)C(=O)N[C@@H](CCC(N)=O)C(N)=O)NC(=O)[C@H](CC(N)=O)NC(=O)[C@H](Cc3ccccc3)NC(=O)[C@H](C)NC(=O)[C@H](C)NC(=O)[C@H](CCC(=O)O)NC(=O)[C@H](CCNS(C)(=O)=O)NC1=O)NC(=O)[C@H](C)NC(=O)[C@H](CC(=O)O)NC2=O (stereo partly shown) [I-532]	42
CC[C@H](C)[C@@H]1NC(=O)[C@H](CC(=O)O)NC(=O)[C@]2(CC=CCCCC3(CCCC=CCCCCCC[C@@](C)(C(=O)N[C@@H](Cc4ccsc4)C(=O)N[C@@H](Cc4csc5ccccc45)C(=O)N[C@@H](CCC(N)=O)C(N)=O)NC(=O)[C@H](CC(N)=O)NC(=O)[C@H](Cc4ccccc4)NC(=O)[C@H](C)NC(=O)[C@H](C)NC(=O)[C@H](CCC(=O)O)NC(=O)[C@H](CC(=O)O)NC3=O)NC1=O)CCCN2C(C)=O (stereo partly shown) [I-521]	50
CC(=O)N1CCC[C@]12CC=CCCCC1(CCCC=CCCCCCC[C@@](C)(C(=O)N[C@@H](Cc3ccccc3)C(=O)N[C@@H](Cc3csc4ccccc34)C(=O)N[C@@H](CCC(N)=O)C(N)=O)NC(=O)[C@H](C(C)C)NC(=O)[C@H](Cc3ccccc3)NC(=O)[C@H](C)NC(=O)[C@H](C)NC(=O)[C@H](CC(=O)O)NC(=O)[C@H](CC(=O)NC3CCC3)NC1=O)NC(=O)[C@H](C)NC(=O)[C@H](CC(=O)O)NC2=O (stereo partly shown)	10
CC(=O)N1CCC[C@]12CC=CCCCC1(CCCC=CCCCCCC[C@@](C)(C(=O)N[C@@H](Cc3ccccc3)C(=O)N[C@@H](Cc3csc4ccccc34)C(N)=O)NC(=O)[C@H](CC(N)=O)NC(=O)[C@H](Cc3ccccc3)NC(=O)[C@H](C)NC(=O)[C@H](C)NC(=O)[C@H](CCC(=O)O)NC(=O)[C@H](CC(=O)O)NC1=O)NC(=O)[C@H](CC1CCCCC1)NC(=O)[C@H](CC(=O)O)NC2=O (stereo partly shown) [I-626]	50
CC(=O)N1CCC[C@]12CC=CCCCC1(CCCC=CCCCOC(=O)N3CC[C@@](C(=O)N[C@@H](Cc4ccc(O)cc4)C(=O)N[C@@H](Cc4csc5ccccc45)C(=O)N[C@@H](CCC(N)=O)C(N)=O)(C3)NC(=O)[C@H](Cc3ccccc3)NC(=O)[C@H](Cc3ccccc3)NC(=O)[C@H](C)NC(=O)[C@H](C)NC(=O)[C@H](CN(CC(=O)O)CC(F)(F)F)NC(=O)[C@H](CC(=O)O)NC1=O)NC(=O)[C@H](CC(C)(C)C)NC(=O)[C@H](CC(=O)O)NC2=O (stereo partly shown)	10
CC(=O)N1CCC[C@]12CC=CCCCC1(CCCC=CCCCOC(=O)N3CC[C@@](C(=O)N[C@@H](Cc4ccsc4)C(=O)N[C@@H](Cc4csc5ccccc45)C(=O)N[C@@H](CCC(N)=O)C(=O)NC4CCCCC4)(C3)NC(=O)[C@H](CC(N)=O)NC(=O)[C@H](Cc3ccccc3)NC(=O)[C@H](C)NC(=O)[C@H](C)NC(=O)[C@H](CC(=O)O)NC(=O)[C@H](CC(=O)O)NC1=O)NC(=O)[C@H](CC(C)(C)C)NC(=O)[C@H](CC(=O)O)NC2=O (stereo partly shown)	10
CC(=O)N1CCC[C@]12CC=CCCCC1(CCCC=CCCCCCC[C@@](C)(C(=O)N[C@@H](Cc3cccc4ccccc34)C(=O)N[C@@H](Cc3c[nH]c4ccccc34)C(=O)N[C@@H](CCC(N)=O)C(N)=O)NC(=O)[C@H](C(C)C)NC(=O)[C@H](Cc3ccccc3)NC(=O)[C@H](C)NC(=O)[C@H](C)NC(=O)[C@H](CC(=O)O)NC(=O)[C@H](CC(=O)O)NC1=O)NC(=O)[C@H](C)NC(=O)[C@H](CC(=O)O)NC2=O (stereo partly shown)	44
CC(=O)N1CCC[C@]12CC=CCCCC1(CCCC=CCCCOC(=O)N3CC[C@@](C(=O)N[C@@H](Cc4ccsc4)C(=O)N[C@@H](Cc4csc5ccccc45)C(=O)N[C@@H](Cc4c[nH]cn4)C(N)=O)(C3)NC(=O)[C@H](CC(N)=O)NC(=O)[C@H](Cc3ccccc3)NC(=O)[C@H](C)NC(=O)[C@H](C)NC(=O)[C@H](CC(C)C)NC(=O)[C@H](CC(=O)O)NC1=O)NC(=O)[C@H](CC(C)(C)C)NC(=O)[C@H](CC(=O)O)NC2=O (stereo partly shown)	10
CC(=O)N1CCC[C@]12CC=CCCCC1(CCCC=CCCCOC(=O)N3CC[C@@](C(=O)N[C@@H](Cc4ccccc4C(F)(F)F)C(=O)N[C@@H](Cc4csc5ccccc45)C(=O)N[C@@H](CCC(N)=O)C(N)=O)(C3)NC(=O)[C@H](Cc3ccccc3)NC(=O)[C@H](Cc3ccccc3)NC(=O)[C@H](C)NC(=O)[C@H](C)NC(=O)[C@H](CC(=O)O)NC(=O)[C@H](CC(=O)O)NC1=O)NC(=O)[C@H](CC(C)(C)C)NC(=O)[C@H](CC(=O)O)NC2=O (stereo partly shown)	10

Data origin: patent US20240116985A1
